B1: SPRY1 (parent)
chain: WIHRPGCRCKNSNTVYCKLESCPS

- Variants of: B1
- testName: protein stability index of a GFP-peptide fusion (GPS, HEK-293T) (PSI 1-6); higher = more stable;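 note: lentivirally expressed fusions sorted by FACS into six bins by GFP to DsRed ratio, PSI derived from sequencing read proportions per bin multiplied by bin number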
- particulars: c terminus: a fixed tail appended
The label depends only on protein stability index: met if it is at least 2, not met if it is smaller.

> print(dat)
   variantcode  class
1         K10A    met

Could you verify whether the entry R4K shows protein stability index of no less than 2?
met

Given E20Y , state whether its protein stability index is at least 2.
met

Determine whether measured protein stability index meets or exceeds 2 for S12W
not met

Hi team, for S21W , is the recorded protein stability index at or above 2?
met

protein stability index >= 2 for Y16N ?
met
